tgt: human recombinant HDAC6 (Homo sapiens, UniProt Q9UBN7)
Construct: purchased Calibiochem Co. (so in the source) 382180
Sequence (Q9UBN7 1-1215): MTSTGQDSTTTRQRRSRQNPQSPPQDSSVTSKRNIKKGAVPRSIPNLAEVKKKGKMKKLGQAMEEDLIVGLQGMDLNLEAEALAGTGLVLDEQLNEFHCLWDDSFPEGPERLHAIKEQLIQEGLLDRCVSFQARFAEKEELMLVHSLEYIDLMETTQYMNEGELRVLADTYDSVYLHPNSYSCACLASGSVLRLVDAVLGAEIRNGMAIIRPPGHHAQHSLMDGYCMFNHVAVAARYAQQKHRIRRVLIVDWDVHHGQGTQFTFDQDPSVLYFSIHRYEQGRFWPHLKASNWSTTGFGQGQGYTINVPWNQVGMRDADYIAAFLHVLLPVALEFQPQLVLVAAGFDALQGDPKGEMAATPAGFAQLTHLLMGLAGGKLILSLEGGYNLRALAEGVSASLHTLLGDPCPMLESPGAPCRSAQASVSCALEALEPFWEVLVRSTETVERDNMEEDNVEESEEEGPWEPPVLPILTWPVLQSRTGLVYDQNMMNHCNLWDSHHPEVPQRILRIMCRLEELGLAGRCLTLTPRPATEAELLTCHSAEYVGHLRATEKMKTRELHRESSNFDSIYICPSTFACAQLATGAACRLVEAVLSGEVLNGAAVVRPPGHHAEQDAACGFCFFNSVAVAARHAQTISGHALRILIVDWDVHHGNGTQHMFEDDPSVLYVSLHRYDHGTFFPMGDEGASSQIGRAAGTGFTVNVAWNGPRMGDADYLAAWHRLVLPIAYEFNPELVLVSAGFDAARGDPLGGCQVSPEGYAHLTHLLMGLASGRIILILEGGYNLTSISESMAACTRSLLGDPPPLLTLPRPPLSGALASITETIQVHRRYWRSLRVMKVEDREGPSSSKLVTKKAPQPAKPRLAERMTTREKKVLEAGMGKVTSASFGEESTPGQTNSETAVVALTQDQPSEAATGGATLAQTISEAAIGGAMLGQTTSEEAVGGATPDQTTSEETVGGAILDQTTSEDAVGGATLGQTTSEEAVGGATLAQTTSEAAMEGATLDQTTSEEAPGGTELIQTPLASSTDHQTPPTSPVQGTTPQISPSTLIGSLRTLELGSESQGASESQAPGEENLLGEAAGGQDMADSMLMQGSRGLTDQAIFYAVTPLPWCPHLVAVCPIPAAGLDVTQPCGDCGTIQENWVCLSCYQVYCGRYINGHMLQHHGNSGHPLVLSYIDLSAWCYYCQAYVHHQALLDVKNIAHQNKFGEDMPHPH
test-name: HDAC enzyme activity test, HDAC6
Assay type: biochemical
reported-conditions: Table 11, eleven HDAC isozymes; read-out: Inhibition ability (IC50) against HDAC6
Reported log10 IC50 values for the following compounds.
readout-name: log10 IC50 (log10 of the value in µM)

# compound, numeric-value
rows = [
    ("CN1CCN(C(=O)N(CCCCCCC(=O)NO)c2ccc(-c3ccc4cnn(C)c4c3)cc2)CC1 [CKD-581, reference compound]", -2.62),
    ("CC1(C)CC(=O)c2c(C(F)(F)F)nn(Cc3ccc(C(=O)NO)cc3)c2C1", -1.49),
    ("CC1(C)CC(=O)c2c(n(CCCCCC(=O)NO)c3ccc(F)cc23)C1", -0.64),
    ("CN1CCN(CC2CCc3c(c4cc(F)ccc4n3Cc3ccc(C(=O)NO)cc3)C2=O)CC1 (stereo not shown)", -2.45),
    ("O=C(NO)c1ccc(Cn2c3c(c4ccccc42)C(=O)C(CN2CCOCC2)CC3)cc1 (stereo not shown)", -1.88),
    ("O=C(NO)c1ccc(Cn2c3c(c4ccccc42)C(=O)N(CCN2CCOCC2)CC3)cc1", -2.29),
    ("CC1(C)CC(=O)c2c(n(Cc3ccc(C(=O)NO)cc3)c3ccccc23)C1", -1.45),
]
